Assign IC50 to each entry below.
- assayed target: UniProt Q9Y5Y9
- assay method text: E-VIPR assay for detecting and measuring NaV inhibition properties
- Assay type: cell-based
- study conditions: E-VIPR assay conducted in the absence of human serum (compounds marked *); HEK cells expressing truncated human NaV 1.8; read-out: IC50
Quick reminder: number only, in nM, skip the unit.

Recall and state the measured IC50 for COc1c(Oc2cnc(C(F)(F)F)c(C)c2C(=O)Nc2ccc(C(N)=O)nc2)ccc(F)c1F [Compound 358] .
75

Recall and state the measured IC50 for Cc1c(Oc2ccc(C(F)(F)F)cc2C(=O)Nc2ccnc(C(N)=O)c2)ccc(F)c1F [Compound 361] .
44

Recall and state the measured IC50 for COc1cc(Oc2ccc(F)cc2Cl)c(C(=O)Nc2cnc(C(N)=O)nc2)c(F)c1C(F)(F)F [Compound 366] .
13

Recall and state the measured IC50 for COc1cc(OC(F)(F)F)ccc1Oc1cc(F)cc(F)c1C(=O)Nc1ccnc(C(N)=O)c1 [Compound 360] .
14

Recall and state the measured IC50 for COc1cc(OC(F)(F)F)ccc1Oc1cc(OC)c(C)c(F)c1C(=O)Nc1ccnc(C(N)=O)c1 [Compound 362] .
2

Recall and state the measured IC50 for COc1c(C(F)(F)F)cc(Oc2ccc(F)cc2Cl)c(C(=O)Nc2cc(C(N)=O)ncc2C)c1F [Compound 382] .
5

Recall and state the measured IC50 for COc1cc(OC(F)(F)F)ccc1Oc1cc(OC)c(C)c(Cl)c1C(=O)Nc1ccnc(C(N)=O)c1 [Compound 363] .
3

Recall and state the measured IC50 for Cc1nc(C(C)(C)C)cc(Oc2ccc(F)cc2Cl)c1C(=O)Nc1ccnc(C(N)=O)c1 [Compound 364] .
46

---

Assign IC50 to each entry below.
- assayed target: human NaV 1.8 (Homo sapiens)
- Sequence (Q9Y5Y9 whole entry, looked up): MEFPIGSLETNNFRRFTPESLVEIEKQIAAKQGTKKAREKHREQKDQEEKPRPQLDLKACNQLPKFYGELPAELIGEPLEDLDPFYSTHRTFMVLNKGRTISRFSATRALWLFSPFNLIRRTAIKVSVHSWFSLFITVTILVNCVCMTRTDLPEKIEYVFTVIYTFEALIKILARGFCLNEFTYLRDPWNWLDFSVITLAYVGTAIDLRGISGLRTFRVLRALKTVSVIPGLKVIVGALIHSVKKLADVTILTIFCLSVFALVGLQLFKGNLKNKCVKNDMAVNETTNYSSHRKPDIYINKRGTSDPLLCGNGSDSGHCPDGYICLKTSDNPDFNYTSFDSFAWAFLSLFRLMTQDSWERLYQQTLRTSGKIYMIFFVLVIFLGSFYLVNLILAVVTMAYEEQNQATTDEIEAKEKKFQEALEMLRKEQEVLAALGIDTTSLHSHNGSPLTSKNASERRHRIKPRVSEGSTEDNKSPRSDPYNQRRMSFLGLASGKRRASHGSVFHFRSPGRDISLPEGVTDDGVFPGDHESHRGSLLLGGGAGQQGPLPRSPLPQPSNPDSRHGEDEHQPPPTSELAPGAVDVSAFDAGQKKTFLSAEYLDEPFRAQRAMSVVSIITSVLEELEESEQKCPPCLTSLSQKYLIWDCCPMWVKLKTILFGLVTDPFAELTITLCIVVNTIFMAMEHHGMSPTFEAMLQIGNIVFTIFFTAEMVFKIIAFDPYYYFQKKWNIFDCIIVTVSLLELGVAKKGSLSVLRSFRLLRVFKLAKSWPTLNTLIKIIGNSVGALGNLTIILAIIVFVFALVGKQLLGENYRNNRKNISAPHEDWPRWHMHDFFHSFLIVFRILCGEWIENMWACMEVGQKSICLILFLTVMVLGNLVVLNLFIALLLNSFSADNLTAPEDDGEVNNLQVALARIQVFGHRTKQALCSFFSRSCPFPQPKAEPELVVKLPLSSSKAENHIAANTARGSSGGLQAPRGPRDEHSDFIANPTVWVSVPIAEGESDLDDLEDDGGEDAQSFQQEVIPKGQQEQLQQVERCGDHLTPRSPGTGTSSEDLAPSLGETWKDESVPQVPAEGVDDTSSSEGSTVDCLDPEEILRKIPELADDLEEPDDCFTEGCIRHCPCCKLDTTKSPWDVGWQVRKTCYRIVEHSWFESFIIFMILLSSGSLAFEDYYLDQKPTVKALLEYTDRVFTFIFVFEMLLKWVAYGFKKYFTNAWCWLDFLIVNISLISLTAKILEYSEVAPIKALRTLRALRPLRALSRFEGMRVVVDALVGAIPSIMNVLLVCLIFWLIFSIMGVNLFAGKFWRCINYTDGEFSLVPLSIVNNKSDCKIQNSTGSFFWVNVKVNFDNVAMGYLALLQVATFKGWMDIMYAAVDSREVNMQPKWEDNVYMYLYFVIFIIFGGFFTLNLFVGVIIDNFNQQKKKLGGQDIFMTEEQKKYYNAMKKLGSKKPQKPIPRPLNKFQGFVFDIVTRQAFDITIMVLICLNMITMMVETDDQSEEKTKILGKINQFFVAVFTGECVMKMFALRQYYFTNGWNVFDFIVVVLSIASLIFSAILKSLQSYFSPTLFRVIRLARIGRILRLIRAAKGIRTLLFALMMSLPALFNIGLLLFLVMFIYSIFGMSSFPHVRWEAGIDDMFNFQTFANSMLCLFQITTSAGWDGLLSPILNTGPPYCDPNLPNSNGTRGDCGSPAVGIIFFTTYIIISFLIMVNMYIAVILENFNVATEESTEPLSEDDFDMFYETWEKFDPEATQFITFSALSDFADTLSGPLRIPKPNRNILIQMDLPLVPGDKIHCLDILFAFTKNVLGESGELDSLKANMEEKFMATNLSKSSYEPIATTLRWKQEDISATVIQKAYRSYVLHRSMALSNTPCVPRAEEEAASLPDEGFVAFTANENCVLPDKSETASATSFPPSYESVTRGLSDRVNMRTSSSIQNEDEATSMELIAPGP
- assay method text: E-VIPR assay for detecting and measuring NaV inhibition properties
- Format: cell-based
- study conditions: E-VIPR assay conducted in the presence of human serum; HEK cells expressing truncated human NaV 1.8; read-out: IC50
Quick reminder: number only, in nM, skip the unit.

Recall and state the measured IC50 for CCc1c(Oc2ccc(C(F)(F)F)c(F)c2C(=O)Nc2ccnc(C(N)=O)c2)ccc(OC(F)(F)F)c1F [Compound 344] .
4.7

Recall and state the measured IC50 for Cc1cc(Cl)cc(C)c1Oc1ccc(C(F)(F)F)c(C)c1C(=O)Nc1ccnc(C(N)=O)c1 [Compound 144] .
765

Recall and state the measured IC50 for [2H]C([2H])([2H])Oc1cc(OC(F)(F)F)ccc1Oc1cc(-c2ccc(OC)cc2)cc(F)c1C(=O)Nc1ccnc(C(N)=O)c1 [Compound 1007] .
170

Recall and state the measured IC50 for COc1cc(Oc2ccc(C(F)(F)F)c(F)c2C(=O)Nc2ccnc(C(N)=O)c2)ccc1F [Compound 21] .
1000

Recall and state the measured IC50 for COc1cc(OC(F)(F)F)ccc1Oc1cc(C2CCC(C(F)(F)F)CC2)cc(F)c1C(=O)Nc1ccnc(C(N)=O)c1 (single isomer, unassigned) [168 (first diastereomer)] .
18

Recall and state the measured IC50 for COc1cc(OC(F)(F)F)ccc1Oc1cc(C2=CCC3(CC2)OCCO3)cc(F)c1C(=O)Nc1ccnc(C(N)=O)c1 [Compound 1015] .
360

Recall and state the measured IC50 for Cc1c(Oc2ccc(C(F)(F)F)c(F)c2C(=O)Nc2ccnc(C(N)=O)c2)ccc(F)c1Cl [Compound 338] .
47

Recall and state the measured IC50 for NC(=O)c1cc(NC(=O)c2c(Oc3ccccc3)ccc(C(F)(F)F)c2F)ccn1 [Compound 22] .
540

Recall and state the measured IC50 for COc1c(C(F)(F)F)ccc(Oc2ccc(F)cc2Cl)c1C(=O)Nc1ccnc(C(N)=O)c1 [Compound 59] .
100

Recall and state the measured IC50 for Cc1cc(F)ccc1Oc1ccc(C(F)(F)F)c(F)c1C(=O)Nc1ccc(C(N)=O)nc1 [Compound 101] .
525

Recall and state the measured IC50 for CC(C)Oc1ccc(Oc2ccc(C(F)(F)F)c(F)c2C(=O)Nc2ccnc(C(N)=O)c2)c(F)c1F [Compound 18] .
19
